Every entry's value here was drawn from patent US20260176336A1.

Provide the recorded pKd for the entries that follow.
experimental-target: T1, cyno FAP His (Acro), recombinant protein (cynomolgus (Macaca fascicularis), UniProt Q12884 26-760 (human entry))
T1 construct: bought protein used as analyte on Carterra LSA
T1 sequence (Q12884 other isoform, or with tags, fused parts or gaps limits assumed): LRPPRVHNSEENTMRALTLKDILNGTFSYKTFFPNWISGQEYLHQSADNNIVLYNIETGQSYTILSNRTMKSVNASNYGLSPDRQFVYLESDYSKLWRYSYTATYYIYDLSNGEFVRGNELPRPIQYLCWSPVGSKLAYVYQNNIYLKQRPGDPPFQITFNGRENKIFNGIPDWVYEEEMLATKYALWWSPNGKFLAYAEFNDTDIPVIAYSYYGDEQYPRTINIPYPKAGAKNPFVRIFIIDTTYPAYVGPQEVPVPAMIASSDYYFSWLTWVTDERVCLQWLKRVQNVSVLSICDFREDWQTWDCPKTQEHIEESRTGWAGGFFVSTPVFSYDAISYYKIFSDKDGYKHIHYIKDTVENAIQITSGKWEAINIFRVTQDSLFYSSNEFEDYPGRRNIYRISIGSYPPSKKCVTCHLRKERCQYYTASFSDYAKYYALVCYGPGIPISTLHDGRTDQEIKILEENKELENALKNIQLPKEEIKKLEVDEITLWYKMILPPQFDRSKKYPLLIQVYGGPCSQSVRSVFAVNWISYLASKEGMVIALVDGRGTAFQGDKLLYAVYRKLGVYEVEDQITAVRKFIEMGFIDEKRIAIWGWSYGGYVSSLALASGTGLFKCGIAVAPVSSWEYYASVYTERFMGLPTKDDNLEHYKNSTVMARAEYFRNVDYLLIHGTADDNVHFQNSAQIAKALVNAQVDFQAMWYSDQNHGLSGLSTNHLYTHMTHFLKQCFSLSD
method-summary: SPR (Carterra LSA), antibody captured by anti-human Fc, FAP as analyte
Expect pKd as a plain number equal to -log10 of the molar concentration.

Req: Which value of pKd has been reported for Clone 3.1 (antibody, V domains shown, anti-FAP mAb (bivalent)) VH: QLQLQESGPGLVKPSETLSLTCTVSGGSISSSTYYWGWIRQPPGKGLEWIGSIFYSGNTYYNPSLKSRVTISVDTSKNQFSLRLNSVTAADTAVYYCAREIIEPRPGYFDYWGQGTLVTVSS VL: DIQMTQSPSSLSASVGDRVTITCRASQSISKYLNWYQQKPGKAPKFLIYAASSLQSGVPSRFSGSGSGTDFTLTISSLQPEDFATYYCQQSNSIPRTFGQGTKVEIK in the records?
Resp: 10.29

Req: Which value of pKd has been reported for Clone 3.2 (antibody, V domains shown, anti-FAP mAb (bivalent)) VH: QVQLVQSGAEVKKPGASVKVSCKASGYTFTGYYMHWVRQAPGQGLEWMGWIYPNTGGTNYAQNFQGRVTMTRDTSISTAYMELSSLRSDDTAVYYCARDDYNKNLDYWGQGTLVTVSS VL: DIQMTQSPSTLSASVGDRGTITCRASQSIGSWLAWYQQKPGKTPKLLIYKASSLESGVPSRFSGSGSGTEFTLTISSLQPDDFATYYCQQYNSYFRTFGQGTKVEIK in the records?
Resp: 10.55

Req: Which value of pKd has been reported for Clone 3.4 (antibody, V domains shown, anti-FAP mAb (bivalent)) VH: EVQLVESGGGLVKPGGSLRLSCVASGFTFSLAWMNWVRQAPGKGLEWVGHIKSRADGGSTDYAAPVKGRFTISRDDSKNTLYLHMNSLKTEDTAVYFCSRFYWNYVLDYWGQGTLVTVSS VL: DIQMTQSPSSLSASVGDRVTITCRASQSINSYFNWYQQKPGKAPKLLIYAASGLQSGVPSRFSGSGSGTDFTLTISSLQPEDFATYYCQQSYSPPYTFGQGTNLEIK in the records?
Resp: 10.52

Req: Which value of pKd has been reported for Clone 3.3 (antibody, V domains shown, anti-FAP mAb (bivalent)) VH: QVQLVQSGTEVKKPGASVKVSCKASGYTFTGYYMNWVRQAPGQGLEWVGWINPNSGDTNFAQKFQGRVTMTRDSSISTAYMELSRLRSDDTAVYYCARQFRGYSYGYGMDVWGKGTTVTVSS VL: DIQMTQSPSSLSASVGDRVTITCRASQNIGSYLNWYQQKPGKAPKLLIYAASSLQSGVPSRFSGSGSGTDFTLTISSLQPEDFATYYCQQANSFPFTFGPGTKVDIK in the records?
Resp: 10.68
